Parameter inhibition: see the listing below.
Molecular target: Protein kinase C iota type (Homo sapiens) (UniProt P41743);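 further: reported figures are mean inhibition values from the GSK PKIS screen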
Sequence (P41743 whole entry): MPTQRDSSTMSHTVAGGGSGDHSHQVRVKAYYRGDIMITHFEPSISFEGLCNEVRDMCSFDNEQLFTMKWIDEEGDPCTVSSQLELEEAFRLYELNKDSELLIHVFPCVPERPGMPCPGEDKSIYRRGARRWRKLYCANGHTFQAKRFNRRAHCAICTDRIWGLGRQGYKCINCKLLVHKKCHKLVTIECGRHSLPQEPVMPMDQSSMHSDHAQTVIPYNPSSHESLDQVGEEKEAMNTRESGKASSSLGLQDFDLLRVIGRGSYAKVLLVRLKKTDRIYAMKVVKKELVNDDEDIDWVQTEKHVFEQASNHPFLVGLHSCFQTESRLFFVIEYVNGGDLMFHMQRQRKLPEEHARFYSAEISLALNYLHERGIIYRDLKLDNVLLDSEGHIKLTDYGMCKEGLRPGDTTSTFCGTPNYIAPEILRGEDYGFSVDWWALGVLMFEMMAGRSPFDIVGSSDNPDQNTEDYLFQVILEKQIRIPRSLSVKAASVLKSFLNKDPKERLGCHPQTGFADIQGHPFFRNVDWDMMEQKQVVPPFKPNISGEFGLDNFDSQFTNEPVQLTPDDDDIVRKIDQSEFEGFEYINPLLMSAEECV
Conditions: at 1 µM
assay_readout: inhibition

chemical_smiles=COc1cc2ncn(-c3cc(OCc4ccccc4C(F)(F)F)c(C(N)=O)s3)c2cc1OC assay_system="Protein kinase C iota type (Homo sapiens) (UniProt P41743)" reading=3.32%
chemical_smiles=Cc1nn(C)c2cc(N(C)c3ccnc(Nc4cccc(S(N)(=O)=O)c4)n3)ccc12 assay_system="Protein kinase C iota type (Homo sapiens) (UniProt P41743)" reading=3.87%
chemical_smiles=COC(=O)Nc1nc2cc(Oc3cccc(NC(=O)Nc4cc(C(F)(F)F)ccc4F)c3)ccc2[nH]1 assay_system="Protein kinase C iota type (Homo sapiens) (UniProt P41743)" reading=-0.55%
chemical_smiles=NC(=O)c1ccc(-c2nc(-c3ccccn3)c(-c3ccc4c(c3)OCO4)[nH]2)cc1 assay_system="Protein kinase C iota type (Homo sapiens) (UniProt P41743)" reading=-0.05%
chemical_smiles=COc1ccc(COc2ccc(Cc3cnc(N)nc3N)cc2OC)cc1 assay_system="Protein kinase C iota type (Homo sapiens) (UniProt P41743)" reading=2.56%

* * *

Molecular target: Serine/threonine-protein kinase MRCK alpha (Homo sapiens);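 further: each inhibition figure is a mean value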
Conditions: at 0.1 µM
assay_readout: inhibition (%)

compound="CC1=C(C(=O)Nc2ccc3[nH]ncc3c2)C(c2ccc(F)cc2)NC(=O)N1 (stereo unspecified)" reading=2.04
compound=O=C1NC(=O)C(c2ccccc2Cl)=C1Nc1cccc(O)c1 reading=0.28
compound=Nc1nc(-c2ccc3c(c2)C(=Cc2cc(Br)c(O)c(Br)c2)C(=O)N3)cs1 reading=-0.3
compound=Cc1cccc(-c2n[nH]cc2-c2ccc3ncccc3n2)n1 reading=0.34
compound="CC1=C(C(=O)Nc2ccc3[nH]ncc3c2)C(c2ccc(Cl)c(Cl)c2)CC(=O)N1 (stereo unspecified)" reading=1.51
compound=COc1ccccc1Nc1ncc(-c2ccccc2)o1 reading=-5.48

* * *

Tested on: Mast/stem cell growth factor receptor Kit (Homo sapiens), P10721 [D816V]
Sequence (P10721 whole entry D816V): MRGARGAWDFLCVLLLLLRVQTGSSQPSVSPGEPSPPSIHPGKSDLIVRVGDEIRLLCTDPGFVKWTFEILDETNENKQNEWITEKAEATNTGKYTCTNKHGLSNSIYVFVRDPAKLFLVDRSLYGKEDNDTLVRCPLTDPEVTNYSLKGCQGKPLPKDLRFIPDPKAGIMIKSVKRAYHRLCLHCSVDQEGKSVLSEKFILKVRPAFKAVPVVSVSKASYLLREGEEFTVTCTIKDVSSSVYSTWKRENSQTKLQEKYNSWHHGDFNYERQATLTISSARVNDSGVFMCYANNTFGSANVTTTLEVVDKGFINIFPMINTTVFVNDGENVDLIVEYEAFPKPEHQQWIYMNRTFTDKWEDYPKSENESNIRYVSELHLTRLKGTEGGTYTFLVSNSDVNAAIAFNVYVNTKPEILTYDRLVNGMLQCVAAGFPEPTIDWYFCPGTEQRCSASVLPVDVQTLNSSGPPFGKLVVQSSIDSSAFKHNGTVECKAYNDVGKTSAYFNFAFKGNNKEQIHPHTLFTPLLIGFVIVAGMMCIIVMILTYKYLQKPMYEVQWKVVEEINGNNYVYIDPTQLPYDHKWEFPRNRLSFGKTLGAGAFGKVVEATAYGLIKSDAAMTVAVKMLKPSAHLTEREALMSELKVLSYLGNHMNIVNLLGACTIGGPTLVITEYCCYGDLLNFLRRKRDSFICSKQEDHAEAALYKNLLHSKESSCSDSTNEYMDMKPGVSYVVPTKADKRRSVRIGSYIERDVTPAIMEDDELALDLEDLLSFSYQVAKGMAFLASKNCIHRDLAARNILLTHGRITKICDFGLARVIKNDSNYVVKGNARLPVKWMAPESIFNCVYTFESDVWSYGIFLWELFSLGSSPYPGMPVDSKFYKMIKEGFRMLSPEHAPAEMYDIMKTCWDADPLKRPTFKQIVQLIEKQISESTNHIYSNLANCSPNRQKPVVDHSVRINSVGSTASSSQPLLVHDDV
Settings: at 1 µM
// inhibition lookup, one value per entry
assay_readout: inhibition (%)

molecule=COc1ccc(-c2ccncc2)cc1C(N)=O unit_spec=% reading=6.29
molecule=CCc1cccc(NC(=O)Nc2ccc(Oc3ccc4nc(NC(=O)OC)[nH]c4c3)cc2)c1 unit_spec=% reading=0
molecule=Fc1cccc(COc2ccc(Nc3ncnc4sc(-c5cccs5)cc34)cc2Cl)c1 unit_spec=% reading=1.72
molecule=O=C1NC(=O)C(c2ccc(Cl)cc2)=C1Nc1ccc(Cl)c(C(=O)O)c1 unit_spec=% reading=-3.02
molecule=CCn1c(-c2nonc2N)nc2c(C#CC(C)(C)O)nc(CN3CCCC3)cc21 unit_spec=% reading=1.18
molecule=CCCN1CCC(Oc2cc(Nc3nc(Nc4cccc(F)c4C(N)=O)c4cc[nH]c4n3)c(OC)cc2Cl)CC1 unit_spec=% reading=-0.61
molecule=CN(C)c1cc2c(Nc3ccc4nc(Cc5ccccc5)[nH]c4c3)ncnc2cn1 unit_spec=% reading=7.56
molecule=Nc1ncnc2occ(-c3ccc(NC(=O)Nc4cccc(C(F)(F)F)c4)cc3)c12 unit_spec=% reading=6.5
molecule="CC1=C(C(=O)Nc2ccc3[nH]ncc3c2)C(c2ccc(F)cc2)NC(=O)N1 (centres undefined)" unit_spec=% reading=1.15

* * *

Biological target: Vascular endothelial growth factor receptor 1 (Homo sapiens);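 further: values are mean percent inhibition of FLT1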
Conditions: at 0.1 µM
assay_readout: inhibition (%)

chemical_smiles=COc1cc2ncn(-c3cc(OCc4ccccc4C(F)(F)F)c(C(N)=O)s3)c2cc1OC assay_system="Vascular endothelial growth factor receptor 1 (Homo sapiens)" reading=1.92
chemical_smiles=CC(=O)Nc1cccc(C#Cc2cncnc2Nc2ccc(OCc3cccc(F)c3)c(Cl)c2)n1 assay_system="Vascular endothelial growth factor receptor 1 (Homo sapiens)" reading=-1.03
chemical_smiles=NC(=O)c1cccc(Nc2nccc(Nc3cccc4[nH]ncc34)n2)c1 assay_system="Vascular endothelial growth factor receptor 1 (Homo sapiens)" reading=2.24
chemical_smiles=COc1cc2ncn(-c3cc(O[C@@H](C)c4ccccc4Cl)c(C(N)=O)s3)c2cc1OC assay_system="Vascular endothelial growth factor receptor 1 (Homo sapiens)" reading=4.55
chemical_smiles=CN1CCC(C(=O)Nc2n[nH]c3nnc(-c4ccccc4)cc23)CC1 assay_system="Vascular endothelial growth factor receptor 1 (Homo sapiens)" reading=0.44
chemical_smiles=Fc1cccc(COc2ccc(Nc3ncnc4sc(-c5cccs5)cc34)cc2Cl)c1 assay_system="Vascular endothelial growth factor receptor 1 (Homo sapiens)" reading=-0.58
chemical_smiles=COC(=O)Nc1nc2cc(Oc3ccc(NC(=O)Nc4cccc(C(=O)O)c4)cc3)ccc2[nH]1 assay_system="Vascular endothelial growth factor receptor 1 (Homo sapiens)" reading=3.38
chemical_smiles=O=C(Nc1n[nH]c2nc(-c3ccco3)c(Br)cc12)C1CC1 assay_system="Vascular endothelial growth factor receptor 1 (Homo sapiens)" reading=2.26
chemical_smiles=CS(=O)(=O)CCNCc1ccc(-c2ccc3ncnc(Nc4ccc(OCc5ccccc5)c(Cl)c4)c3c2)o1 assay_system="Vascular endothelial growth factor receptor 1 (Homo sapiens)" reading=-0.51
chemical_smiles=CS(=O)(=O)CCNCc1nc(-c2ccc3ncnc(Nc4ccc(F)c(Cl)c4)c3c2)cs1 assay_system="Vascular endothelial growth factor receptor 1 (Homo sapiens)" reading=1.98
chemical_smiles=CCn1c(-c2nonc2N)nc2c(N3CCCC3)nccc21 assay_system="Vascular endothelial growth factor receptor 1 (Homo sapiens)" reading=-0.79
chemical_smiles=O=C1NC(=O)C(N2CCc3ccccc32)=C1c1ccc(Cl)cc1 assay_system="Vascular endothelial growth factor receptor 1 (Homo sapiens)" reading=1.82
chemical_smiles=CS(=O)(=O)CCNCc1ccc(-c2ccc3ncnc(Nc4ccc(OCc5cccc(F)c5)c(C(F)(F)F)c4)c3c2)o1 assay_system="Vascular endothelial growth factor receptor 1 (Homo sapiens)" reading=-0.83
chemical_smiles=CCN1CCC(CC(=O)Nc2n[nH]c3nc(-c4cccs4)c(Br)cc23)CC1 assay_system="Vascular endothelial growth factor receptor 1 (Homo sapiens)" reading=0.44
chemical_smiles=O=C1NC(=O)C(c2ccccc2Cl)=C1Nc1cccc(O)c1 assay_system="Vascular endothelial growth factor receptor 1 (Homo sapiens)" reading=0.36
chemical_smiles=CCn1c(-c2nonc2N)nc2ccncc21 assay_system="Vascular endothelial growth factor receptor 1 (Homo sapiens)" reading=0.15
chemical_smiles=Cn1cc(C=C2C(=O)Nc3cccnc32)c2ccccc21 assay_system="Vascular endothelial growth factor receptor 1 (Homo sapiens)" reading=1.42
chemical_smiles=NCc1ccc(-c2nc(-c3ccc(Cl)c(O)c3)c(-c3ccncc3)[nH]2)cc1 assay_system="Vascular endothelial growth factor receptor 1 (Homo sapiens)" reading=19.8
chemical_smiles=Nc1nc(-c2ccccn2)c(-c2ccc3ncccc3n2)s1 assay_system="Vascular endothelial growth factor receptor 1 (Homo sapiens)" reading=0.57
chemical_smiles=CCn1c(-c2nonc2N)nc2c(C#CC(C)(C)O)nc(OC[C@@H](N)c3ccccc3)cc21 assay_system="Vascular endothelial growth factor receptor 1 (Homo sapiens)" reading=5.16
chemical_smiles=Cc1ccc(C(=O)NC2CCCCC2)cc1-c1ccc(C(=O)NCC2CC2)cc1 assay_system="Vascular endothelial growth factor receptor 1 (Homo sapiens)" reading=2.97
